Listed here are compounds together with their documented GI50.
Test system: SNB-19
Assay: NCI tumour cell line growth inhibition, 48 h
Calls of active or inactive are those of the source. No stated cut-off is given here; in the data, active = GI50 up to about 1.1 µM and inactive = higher.

{"compound": "CCCCCCCC(=O)OCC(COC(=O)C(C)(C)C)OC(=O)Cc1ccccc1 (stereo not given)", "target.or.test.system": "SNB-19", "GI50": "> 100 µM (inactive)"}
{"compound": "O=c1oc2c(ccc3occc32)c(N2CCCCC2)c1-c1ccccc1", "target.or.test.system": "SNB-19", "GI50": "> 100 µM (inactive)"}
{"compound": "CS(=O)(=O)c1nc(-c2cc3c(c(S(C)(=O)=O)n2)CCCC3)cc2c1CCCCC2", "target.or.test.system": "SNB-19", "GI50": "> 100 µM (inactive)"}
{"compound": "Cc1ccc(C(=O)/C(C#N)=C/Nc2c(C)n(C)n(-c3ccccc3)c2=O)cc1", "target.or.test.system": "SNB-19", "GI50": "> 100 µM (inactive)"}
{"compound": "CC(C)C(N)C(=O)NC(CCC(=O)NCCCCC(N)C(=O)NCCCNc1ccc([N+](=O)[O-])c2[nH]c3ccccc3c(=O)c12)C(N)=O (stereo not given)", "target.or.test.system": "SNB-19", "GI50": "35.2 µM (inactive)"}

# input Entry O=C1Oc2ccccc2C(=O)/C1=C/NC(=S)NCCc1ccccc1 has what GI50?
# output 37.7 µM (inactive)

# input Entry Cc1cccc(C(C)C)c1NC(=O)CC1C(=O)Nc2ccccc2S1(=O)=O (stereo not given) has what GI50?
# output 29.2 µM (inactive)

# input Entry C/C(=N\N=C(/S)SCc1ccccc1)c1ccccn1 has what GI50?
# output 2.97 µM (inactive)

# input Entry C#CCn1c(I)cc2c(c1=O)COC(=O)[C@]2(O)CC has what GI50?
# output > 100 µM (inactive)

# input Entry COc1ccc(-c2c(N)n(-c3cccc(C(=O)O)c3)c(=O)c3cc([N+](=O)[O-])ccc23)cc1 has what GI50?
# output > 100 µM (inactive)

# input Entry O=C(Nc1cc(Cl)c(Cl)cc1Cl)C(=O)C(C(=O)c1ccc2ccccc2c1)C1OC(=O)c2ccccc21 (stereo not given) has what GI50?
# output 11.6 µM (inactive)

# input Entry CCOC(=O)NN1C(=O)C(=P(c2ccccc2)(c2ccccc2)c2ccccc2)C(C(=O)OCC)=C1C has what GI50?
# output > 100 µM (inactive)

# input Entry CC(C)(C)NC(=O)CCC1C(C(=O)NC(C)(C)C)C2(Cl)C(Cl)=C(Cl)C1(Cl)C2(Cl)Cl (stereo not given) has what GI50?
# output > 100 µM (inactive)

# input Entry Cc1cccc(C)c1NC(=O)C(=O)CC(=O)/C=C/c1ccccc1 has what GI50?
# output > 100 µM (inactive)

# input Entry COc1cc2c(cc1OS(C)(=O)=O)N=C[C@@H]1CCCN1C2=O has what GI50?
# output > 100 µM (inactive)

# input Entry COC(=O)C1=C(O)C(O)=C(C(=O)OC)C1 has what GI50?
# output > 100 µM (inactive)

----------
Test system: DMS-114
Assay: NCI tumour cell line growth inhibition, 48 h
Activity calls are given as the source filed them. Rule as the data show it: active = GI50 up to about 1.1 µM and inactive = higher.
Listed here are compounds together with their documented GI50.

The examples below pair each entry with its known result.
{"compound": "NC(CO)c1ccc(OCc2ccccc2)cc1 (stereo not given)", "GI50": "> 100 µM (inactive)"}
{"compound": "COc1ccc(NC(=O)CC(=O)N/N=C/c2ccc(N(CCC#N)S(=O)(=O)c3ccccc3)cc2)cc1", "GI50": "> 100 µM (inactive)"}
{"compound": "OC1C2C=CCC1CCC2 (stereo not given)", "GI50": "> 100 µM (inactive)"}
{"compound": "COC1/C(=C\\c2ccccc2I)c2ccccc2N1C(C)=O (stereo not given)", "GI50": "17 µM (inactive)"}
{"compound": "COC(=O)C1=C(O)C(O)=C(C(=O)OC)C1", "GI50": "> 100 µM (inactive)"}

# input Entry O=C1c2ccccc2C2(O)Oc3cccc(O)c3C12O (stereo not given) has what GI50?
# output > 100 µM (inactive)

# input Entry C=C1c2ccccc2N(S(=O)(=O)c2ccc(C)cc2)C12CCCCC2 has what GI50?
# output 18.9 µM (inactive)

# input Entry CCc1ccccc1NC(=O)CCc1n[nH]c(=S)o1 has what GI50?
# output > 100 µM (inactive)

# input Entry Cc1cccc(C(C)(C)C)c1NC(=O)CCc1nnc(S)[nH]1 has what GI50?
# output > 100 µM (inactive)

# input Entry O=c1oc2c(ccc3occc32)c(N2CCCCC2)c1-c1ccccc1 has what GI50?
# output > 86.1 µM (inactive)
